Data provenance: PubChem BioAssay

z-score by entry:
# test.system: Homeobox protein Hox-A13 (Mus musculus) (UniProt Q62424)
# Sequence (Q62424 whole entry, looked up): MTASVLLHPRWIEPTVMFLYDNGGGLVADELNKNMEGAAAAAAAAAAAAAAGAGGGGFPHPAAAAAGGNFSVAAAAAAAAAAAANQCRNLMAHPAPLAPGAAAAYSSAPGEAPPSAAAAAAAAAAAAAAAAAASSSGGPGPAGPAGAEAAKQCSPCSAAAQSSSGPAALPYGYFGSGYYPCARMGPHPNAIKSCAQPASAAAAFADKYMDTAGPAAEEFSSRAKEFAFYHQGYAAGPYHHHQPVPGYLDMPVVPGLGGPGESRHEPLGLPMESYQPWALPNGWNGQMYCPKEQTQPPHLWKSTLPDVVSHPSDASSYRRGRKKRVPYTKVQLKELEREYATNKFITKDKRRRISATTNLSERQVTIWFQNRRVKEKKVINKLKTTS
# procedure.summary: inhibitors of HoxA13-DNA binding, primary screen, biochemical, fluorescence polarization, labeled oligonucleotide (AID 1185)
# stated.conditions: 15 min, higher = more signal, called active from +8 up or from −8 down
Please state the value as a number alone, without comment.

Recorded z-score, per entry:
Quick one: give measured z-score for `O=C(NCc1ccccc1)[C@@H]1c2ccccc2C(=O)N(Cc2ccccc2Cl)[C@H]1c1ccc(CO)cc1`
-0.497

Supply reported z-score belonging to this compound: `CCOC(=O)C[C@H]1[C@H](OC(=O)c2ccc(-c3ccccc3)cc2)[C@@H](NC(=O)C2CCCCC2)c2cc(OCCCO)ccc2N1C(=O)c1ccc2ccccc2n1`
-0.844

Provide one value: measured z-score of `C=C[C@H](OC)[C@@H](OC(=O)Nc1ccc(OC)cc1)c1ccc(OC)c(O)c1`
-2.75

Tell us which z-score value is on record for C=CCC(OC(C)=O)[C@@H]1[C@@H](N(Cc2cccc3ccccc23)C(=O)Cc2ccc(OC)cc2)c2cc(OCCCO)ccc2N1C(=O)Cc1ccc(OC)cc1 (some centres not stated)
-2.18

Return the recorded z-score value; entry: `C=CCNC(=O)[C@@H]1[C@H]2C(=O)O[C@H](c3ccccc3)[C@H](c3ccccc3)N2[C@H](c2ccc(O)cc2)[C@@]12C(=O)Nc1ccccc12`
-3.58

---
Check the records and state z-score for `CCCCC(=C=CC[C@@H](O)c1ccc(OCCO)cc1)C[C@@H](O)c1cc(Cl)cc(Cl)c1O`
-3.4

Item `C/C=C/[C@@H](CCn1cc(CCO[Si](C(C)C)(C(C)C)C(C)C)nn1)[Si](C)(C)c1ccc(OC)cc1` : provide z-score
-5.56

====

# procedure.summary: basal 3T3-L1 adipocyte mitochondrial potential changes, profiling panel, cell-based, JC-1 fluorescence, 3T3-L1 adipocytes, 24 h, 100 nL compound (AID 1168); also: test concentration not given here
# stated.conditions: JC-1 mitochondrial fluorescence, higher = more signal, called active from +8 up or from −8 down
Our labelling divides records by z-score into ranges: LOW: < 0.6; MEDIUM: ≥ 0.6 and < 1; HIGH: ≥ 1

Consider the following illustrative entries.
# bin lookup: classify C[C@@H](OCc1ccccc1)C1NC(=O)[C@@]23C(=O)N[C@@H](Cc4ccccc4)C2[C@H](C)[C@@]2(C)O[C@H]2C3/C=C/C/C=C\CNC(=O)[C@@H]2CCCN2C1=O (stereo not given in full) by its z-score
LOW

The entry to classify is `O=C(NO)[C@]1(Cc2ccccc2)N=C(c2ccc(OCCCO)cc2)O[C@@H]1c1ccccc1` ; which class holds it?
HIGH

Which bin, given its z-score, does `CC(C)C[C@@H]1NC(=O)[C@@H]2C[C@H](C(=O)NCCCCCNC(=O)CS)[C@H](c3cccc(OCCO)c3)N2C1=O` occupy?
LOW

For the record `COCCCNC(=O)[C@@]1(Cc2ccccc2)N=C(c2ccc(OCCCO)cc2)O[C@H]1c1ccccc1N=[N+]=[N-]` , report the class its z-score corresponds to.
HIGH

Band assignment needed for `C=CC[C@]1(C(=O)N2CCCCC2)COC(c2ccc(OCCCO)cc2)=N1` please.
LOW

Which z-score band matches `Cc1ccc(S[C@]2(C(=O)NC3CC3)CC(=O)N(Cc3ccccc3C(F)(F)F)[C@@H]2c2ccc(CO)cc2I)cc1` ?
LOW

Could you place `CC(C)(C)OC(=O)CC[C@@]1(C(=O)N2CCOCC2)N=C(c2ccc(OCCCO)cc2)O[C@@H]1c1ccccc1` in its proper category? Many thanks.
HIGH

Please classify: `CCOC(=O)C[C@H]1[C@H](OC(=O)Cc2ccc3c(c2)OCO3)[C@@H](NC(=O)c2ccc3ccccc3c2)c2cc(OCCCO)ccc2N1C(=O)c1ccc2ccccc2n1`
HIGH

Exam item: assign `O=C(N1CCCCC1)[C@@]1(Cc2ccccc2)N=C(c2ccc(OCCCO)cc2)O[C@H]1c1ccccc1` to the correct category.
MEDIUM

Assign a bin to `CC(C)[Si](C#C[Si](C(C)C)(C(C)C)C(C)C)(O[C@H](C)c1cn([C@H](C)c2ccccc2)nn1)C(C)C`
HIGH

Please examine the following record next.
Please let me know in which category the item C=CCC(OC(C)=O)[C@@H]1[C@@H](N(Cc2cccc3ccccc23)C(=O)Cc2ccc(OC)cc2)c2cc(OCCCO)ccc2N1C(=O)Cc1ccc(OC)cc1 (stereo not given in full) belongs.
MEDIUM

====

# procedure.summary: binders of probe aFGF2 on microarray, primary screen, stem cell growth factor project, biochemical, small-molecule microarray, fluorescence 635/667 (AID 1067);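 also: measures binding of biotinylated aFGF2 protein to printed compounds on slides; z-score merges feature fluorescence and signal-to-noise across triplicate slides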
# stated.conditions: higher = more signal
Measured composite z-score, listed per entry.
Note: the reply should be a number with no unit written.

Solved cases below.
Supply recorded composite z-score for `[N-]=[N+]=NCc1ccccc1C[C@@]1(C(=O)NCc2ccccc2)N=C(c2ccc(OCCCO)cc2)O[C@@H]1c1ccccc1` here.
0.0336

Specify measured composite z-score for `CCCNC(=O)[C@@]1(Sc2ccc(C)cc2)CC(=O)N(Cc2cc(C(F)(F)F)cc(C(F)(F)F)c2)[C@@H]1c1ccc(CO)cc1I` .
-0.0775

Give the measured composite z-score for `CO[C@H]1O[C@H](CO)[C@@H](OC(=O)Nc2ccccc2)[C@H](OC(=O)Nc2ccc3c(c2)OCO3)[C@H]1OC(=O)Nc1ccc2c(c1)OCO2`
0.128

Given `CC(C)(C)OC(=O)CC[C@@]12N=C(c3ccc(OCCCO)cc3)O[C@@H]1c1ccccc1N(Cc1ccccc1)C2=O` , respond with its composite z-score.
-0.0481

Please supply the value of reported composite z-score for the item C=CCC(OC(C)=O)[C@@H]1[C@@H](N(Cc2ccc(-c3ccccc3)cc2)C(=O)c2ccc(-c3ccccc3)cc2)c2cc(OCCCO)ccc2N1C(=O)c1ccc(-c2ccccc2)cc1 (stereo partly specified)
0.032

Okay, now this compound:
For the compound `O=C1O[C@H](c2ccccc2)[C@H](c2ccccc2)N2[C@H]1[C@@H](C(=O)NC[C@H](O)c1ccccc1)[C@]1(C(=O)Nc3ccc(C#CC4(O)CCCCCC4)cc31)[C@H]2c1ccc(O)cc1` , give its reported composite z-score.
-0.0529

====

Reported z-score values follow for various molecules
# procedure.summary: MM1S cell viability effects, profiling panel, calcein-AM fluorescence, 48 h, basal (AID 1165);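 also: viability of MM1S multiple myeloma cells under basal unstimulated conditions; test concentration not given here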
# stated.conditions: higher = more signal
Form field (numeric): enter value without unit.

# return recorded z-score for input `C=CCNC(=O)[C@H]1[C@@H]2C(=O)O[C@@H](c3ccccc3)[C@@H](c3ccccc3)N2[C@@H](c2ccccc2OCCO)[C@]12C(=O)N(C(=O)OCCOC)c1ccc(C#CCCO)cc12`
-2.04

Read off the recorded z-score for `C=CC[C@@H](OC(=O)Nc1ccc(SC)cc1)c1ccc(OCCO)cc1`
-0.2

Let me know recorded z-score for `C=CCOC(=O)[C@H]1[C@@H]2C(=O)O[C@@H](c3ccccc3)[C@@H](c3ccccc3)N2[C@@H](c2ccc(OCCOC(=O)[C@H]3C[C@H]4C(=O)N5CCC[C@H]5C(=O)N4[C@H]3c3cccc(OCCO)c3)cc2)[C@]12C(=O)Nc1ccccc12` , thanks.
-1.73

Hello, please tell me recorded z-score for this one: `C=C(CCCC)/C(=C/C[C@H](OC(=O)c1ccncc1)c1ccc(CO)o1)c1cnc2ccccc2c1`
-2.31

Report measured z-score; entry is `CC(C)[C@@H](C(=O)O)n1cc(-c2ccccn2)nn1`
-0.0169

Now take the following molecule into account.
Kindly indicate its recorded z-score. Item: CC(C)C[C@@H]1NC(=O)[C@@]23C(=O)N[C@@H](Cc4ccccc4)C2[C@H](C)[C@@]2(C)O[C@H]2C3/C=C/C/C=C\CNC(=O)[C@H](Cc2ccccc2)NC1=O (stereo partly specified)
0.0263

====

Each record here notes measured z-score.
# procedure.summary: inhibitors of hydroxyurea-induced Chk1 phosphorylation, primary screen, imaging, HeLa, phospho-Chk1 nuclear intensity (AID 1187); also: test concentration not given here
# stated.conditions: hydroxyurea-induced phospho-Chk1 immunofluorescence imaging, higher = more signal
Reply with just the number.

Consider the following illustrative entries.
Tell us which z-score value is on record for `CCOC(=O)C[C@H]1[C@H](OC(=O)c2ccc(C(=O)c3ccccc3)cc2)[C@@H](NC(=O)Cc2ccc(OC)cc2)c2cc(OCCCO)ccc2N1C(=O)Cc1ccc(OC)cc1`
0.0944

Using known records, supply z-score for `CCCCCCC#C[Si](O[C@H](c1ccccc1)c1cn(Cc2ccccc2)nn1)(C(C)C)C(C)C`
-0.601

Could you now look at the following compound, please?
Please indicate z-score recorded for `COc1ccc(C(=O)Nc2cccc(CN3C(=O)[C@@]4(O[C@@H](CCO)[C@H]([Si](C)(C)c5ccc(OC)cc5)[C@H]4C)c4ccccc43)c2)cc1`
-0.215

====

This listing pairs compounds with measured z-score.
# procedure.summary: Plasmodium falciparum growth inhibition, primary screen, strain 3D7, DAPI fluorescence, 100 nL (AID 1184);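 also: parasites grown inside human red blood cells in medium with human serum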
# stated.conditions: P. falciparum 3D7 growth, 3 d, higher = more signal
Enter the number alone.

// known answers, use as guide
Give the value of z-score reported for the following: `C=CC[C@@]1(C(=O)NCc2ccccc2)N=C(c2ccc(OCCCO)cc2)O[C@@H]1c1ccccc1`
-2.24

For `Cc1ccc(S[C@]2(C(=O)NC3CC3)CC(=O)N(Cc3ccccc3C(F)(F)F)[C@@H]2c2ccc(CO)cc2I)cc1` , write its z-score.
-0.215

State its z-score for this compound: C=CCC(OC(C)=O)[C@@H]1[C@@H](N(Cc2ccc(-c3ccccc3)cc2)C(=O)c2ccc(-c3ccccc3)cc2)c2cc(OCCCO)ccc2N1C(=O)c1ccc(-c2ccccc2)cc1 (some centres undefined)
-0.883

---
Give z-score for the following compound: `COCCOC(=O)N1C(=O)[C@@]2(c3cc(C#CCCO)ccc31)[C@H](c1ccccc1OCCO)N1[C@H](c3ccccc3)[C@H](c3ccccc3)OC(=O)[C@H]1[C@@H]2C(=O)NC[C@H](O)c1ccccc1`
-2.08

Specify z-score for `C=CCNC(=O)[C@H]1[C@@H]2C(=O)O[C@@H](c3ccccc3)[C@@H](c3ccccc3)N2[C@@H](c2ccccc2OCCO)[C@]12C(=O)N(C(=O)OCCOC)c1ccc(C#CCCO)cc12` and stop.
-2.16

Consider the compound `COCCCN1C(=O)[C@@]2(Cc3ccccc31)c1ccccc1C(=O)N(Cc1ccccc1Cl)[C@H]2c1ccc(CO)cc1` . State its measured z-score.
-0.7

Let me know recorded z-score for `O=C(O)[C@H]1C[C@H]2C(=O)NCC(=O)N2[C@H]1c1cccc(OCCO)c1` , thanks.
-0.52

Annotate the compound `O=C1O[C@H](c2ccccc2)[C@H](c2ccccc2)N2[C@H]1[C@@H](C(=O)Nc1nc3ccccc3s1)[C@]1(C(=O)Nc3ccc(C#CCCO)cc31)[C@H]2c1ccccc1OCCO` with its measured z-score.
-2.23

Supply z-score value. Item: NC(=O)N1C(=O)C2C(C1=O)C1C=C(c3ccc(CO)cc3)C2C(C2CC2)N1Cc1cc2c(cc1Br)OCO2 (centres undefined)
-2.14

Report z-score for `CCCCC(=C=CC[C@@H](O)c1ccc(OCCO)cc1)C[C@@H](O)c1cc(Cl)cc(Cl)c1O`
-2.87

Retrieve z-score measured for `C=C(C1=CCN(S(=O)(=O)c2ccc(C)cc2)C1)[C@@H](OC(C)=O)[C@@H]1CCCN1S(=O)(=O)c1ccccc1[N+](=O)[O-]` and print it.
-2.68

Assign z-score to the following record: CCN(CC)c1ccc(N2CC=CC34O[C@@H]5C=CCOC(=O)[C@@H]5[C@H]3C(=O)N(C(C)CO)[C@@H]4C2=O)cc1 (some centres undefined)
0.339

In one line, give reported z-score of the entry `C=C(COC)/C(=C/C[C@H](OC(C)=O)c1cccc(OCCO)c1)c1cc(C(=O)OC)ccc1OC` .
-2.67

Tell me its z-score given `COC(=O)c1c(CC[C@@H](CO)NC(=O)Nc2ccc(OC)cc2)oc(C(=O)Cc2ccccc2)c1C(=O)OC` as the entry.
-0.83

Annotate the compound `C[N+](C)(C)CCCC[C@@H]1NC(=O)[C@@H]2C[C@H](C(=O)NCCCCCNC(=O)CS)[C@H](c3ccc(O)cc3)N2C1=O` with its measured z-score.
-0.34

Give the value of z-score reported for the following: `O=C(N1CCCCC1)[C@@]1(Cc2ccccc2)N=C(c2ccc(OCCCO)cc2)O[C@H]1c1ccccc1`
-2.18

Specify z-score for `COCCCNC(=O)[C@@]1(Cc2ccccc2)N=C(c2ccc(OCCCO)cc2)O[C@H]1c1ccccc1N=[N+]=[N-]` and stop.
-2.43
